tested on: P. falciparum 3D7 trophozoites; test: Metabolomic fingerprint profiling LC-MS; assay type: cell-based, Plasmodium falciparum; conditions: S2 Table Metabolomics; peptide PD
Each entry below carries its reported PD.
Write the value as a bare number.

                                   molecule  meas_value
0  OC(CNC1CCCCC1)Cn1c2ccccc2c2ccccc21 (stereo not drawn) [MMV009063]     -0.8841
1  COc1ccc(NC(=O)C2c3ccccc3C(=O)N(CC(C)C)C2c2cccs2)cc1Cl (stereo not drawn) [MMV000642]     -2.5956
2  CCOC(=O)c1cnc2c(C)cc(C)cc2c1Nc1ccc(OC)c(OC)c1 [MMV008294]     -0.1287
3  Cc1ccc(-c2cc3c(nn2)-c2ccccc2C3=O)cc1 [MMV666021]     0.02372
4      CCc1c(C)c(=N)c2ccccc2n1C [MMV006278]     -0.1923
5  COc1ccc(C2=C(c3ccc(OC)cc3)C3(c4ccccc4)C(=O)C2(c2ccccc2)C2C(=O)N(c4ccc(C)cc4)C(=O)C23)cc1 (stereo not drawn) [MMV666101]     0.01018
6  Cc1cc(Nc2ccc3ccccc3c2)n2ncnc2n1 [MMV011099]      0.1181
7  CN1CCN(c2ccc(Nc3c4ccccc4nc4ccccc34)cc2)CC1 [MMV006172]     -0.4464

Now for a further molecule.
Ask: Please look at this molecule and report its PD: Cc1cc(Nc2ccc(Cl)cc2)n2nc(C(F)(F)F)nc2n1 [MMV011256]
Result: 0.2516

###

test system: U87-CD4-CCR5 or U87-CD4-CXCR4 cells; test: U87 cell viability MTT; assay type: cell-based; settings: 5uM
endpoint_label: U87 % cell death rep3 (X4 P24 Washout expt) (%)
// return numeric value only (unit: %, not printed)

Ask: Return U87 % cell death rep3 (X4 P24 Washout expt) for the following compound: COc1cc2cc(C(=O)Nc3ccccc3)c(N)nc2cc1OC
Result: 51

Ask: Tell me U87 % cell death rep3 (X4 P24 Washout expt) reported for COc1ccc(C(=O)Nc2ccc3nc(N4CCCCC4)cc(C)c3c2)cc1OC
Result: -25

Ask: Give me measured U87 % cell death rep3 (X4 P24 Washout expt), please, for this compound: CCN(CC)c1cc(C)c2cc(NC(=O)c3cccc(OC)c3)ccc2n1
Result: -4

Ask: Look up and state reported U87 % cell death rep3 (X4 P24 Washout expt) for CCOC(=O)c1cnc2ccc(OC)cc2c1NCc1ccccc1
Result: 12

Ask: Entry CCN1CCN(c2cc(C)c3cc(NC(=O)c4ccc(OC)c(OC)c4)ccc3n2)CC1 needs its U87 % cell death rep3 (X4 P24 Washout expt) filled in; supply it.
Result: -32

###

test system: primary human hepatocytes; assay: MPCC hepatotoxicity (albumin, urea, morphology); format: cell-based; conditions: 10µM
Human hepatocyte albumin synthesis, 1.0 normal by entry:
Output spec: single numeric token, no unit.

Observe how each entry below is paired with its result.
In [3]: df
Out[3]:
                                   molecule  meas_value
0  CCN1CCN(c2cc(C)c3cc(NC(=O)c4ccc(OC)c(OC)c4)ccc3n2)CC1 [MMV019074]        0.51
1  COc1cc2cc(C(=O)Nc3ccccc3)c(N)nc2cc1OC [MMV006767]        0.82
2  COc1ccc(C(=O)Nc2ccc3nc(N4CCCCC4)cc(C)c3c2)cc1OC [MMV019758]        0.58
3  CCOC(=O)c1cnc2ccc(OC)cc2c1NCc1ccccc1 [MMV665813]        0.93

Now consider a different molecule.
Ask: Read off the recorded Human hepatocyte albumin synthesis, 1.0 normal for CCN(CC)c1cc(C)c2cc(NC(=O)c3cccc(OC)c3)ccc2n1 [MMV000498]
Result: 0.57

###

test system: P. falciparum 3D7 trophozoites; assay: Metabolomic fingerprint profiling LC-MS; assay type: cell-based, Plasmodium falciparum; details: metabolite xanthosine; S2 Table Metabolomics, change in metabolite level after compound treatment
Listing: xanthosine of selected compounds
Format: numeric value only, no unit, no commentary.

                                   compound  meas_value
0  Fc1ccc2[nH]c3c(NCCCN4CCOCC4)ncnc3c2c1 [MMV019871]     -0.4756
1  COc1ccc(C=C2SC(=N)N(c3ccccc3OC)C2=O)cc1 [MMV666691]      0.6937

Ask: Give a short answer stating reported xanthosine for Cc1cc(Nc2ccc(Cl)cc2)n2nc(C(F)(F)F)nc2n1 [MMV011256] .
Result: 0.002012

Ask: Return xanthosine (reported value) for this compound: Cc1ccc(N2C(=O)C3C(C2=O)C2(c4ccccc4)C(=O)C3(c3ccccc3)C(c3ccccc3)=C2c2ccccc2)cc1 (stereo not drawn) [MMV666062]
Result: -0.2816

Ask: State, in one line, measured xanthosine of CCOC(=O)c1cn(CC)c2cc(N(C)CCc3ccc(OC)c(OC)c3)c(F)cc2c1=O [MMV665977]
Result: -0.3168

Ask: Tell me its xanthosine given CCC(c1ccccc1)c1nn2c(-c3cccs3)nnc2s1 (stereo not drawn) [MMV665876] as the entry.
Result: 0.3254

Ask: Give a short answer stating reported xanthosine for COc1ccc(Br)cc1C1Nc2ccc3ccccc3c2C2=C1C(=O)CC(c1ccccc1)C2 (stereo not drawn) [MMV020885] .
Result: 0.04674

Ask: Consider the compound Cc1cc(C)c2c(c1)OCN(Cc1ccccc1Cl)C2 [MMV006558] and give its recorded xanthosine.
Result: -1.032

Ask: // fetch xanthosine given entry OC(CNC1CCCCC1)Cn1c2ccccc2c2ccccc21 (stereo not drawn) [MMV009063]
Result: -0.08621

###

Measured hypoxanthine, listed per entry.
system: P. falciparum 3D7 trophozoites; assay: Metabolomic fingerprint profiling LC-MS; format: cell-based, Plasmodium falciparum; conditions: metabolite hypoxanthine, S2 Table Metabolomics
Reply with just the number.

>>> print(df.to_string())
                                   compound                target_or_system  endpoint_label  meas_value
0  CCOC(=O)c1cnc2c(C)cc(C)cc2c1Nc1ccc(OC)c(OC)c1  P. falciparum 3D7 trophozoites    hypoxanthine      0.2152
1   Cc1cc(Nc2ccc(Cl)cc2)n2nc(C(F)(F)F)nc2n1  P. falciparum 3D7 trophozoites    hypoxanthine     -0.6973
2  CCCCCC(=O)N1c2ccccc2N=C2CC(c3ccc(OC)c(OC)c3)CC(O)=C2C1c1ccc(C(F)(F)F)cc1 (stereo not shown)  P. falciparum 3D7 trophozoites    hypoxanthine     -0.4709

Ask: Tell me its hypoxanthine given CCOC(=O)C1=C(c2ccccc2)N=c2sc(=Cc3cc(C)n(-c4ccc(F)cc4)c3C)c(=O)n2C1c1cccc(OC)c1OC (stereo not shown) as the entry.
Result: 0.09643

Ask: For the compound CC(C)(C)c1ccc(O)c(CNC2CCCCC2)c1 , report hypoxanthine.
Result: -0.2777

Ask: Fill in hypoxanthine for record COc1cccc(NC(=O)[C@H](C(C)C)n2c(=O)[nH]c3ccccc3c2=O)c1
Result: -0.3925

Ask: Consider the compound O=C(NCC(c1ccsc1)N1CCCCCC1)c1ccc(C(F)(F)F)cc1 (stereo not shown) and give its recorded hypoxanthine.
Result: 0.2737

Ask: Consider the compound CN(C)c1ccc(C(O)(c2ccc(N(C)C)cc2)c2ccc(N(C)C)cc2)cc1 . State its measured hypoxanthine.
Result: -0.2046

###

system: P. falciparum 3D7 trophozoites; experiment: Metabolomic fingerprint profiling LC-MS; type: cell-based, Plasmodium falciparum; settings: S2 Table Metabolomics; metabolite dAMP
Flag rule - dAMP less than 1 flags Y; the remaining entries get N.

>>> df
                                   compound  class_label
0       CCCc1cc(O)c2c3c(c(=O)oc2c1)CN(C)CC3            Y
1  CCOc1cc2c(cc1OCC)C(c1cc(OC)c(O)cc1Cl)NCC2 (centres unmarked)            N
2  Cc1ccc(-c2cc3c(SCC(=O)Nc4cc(C(F)(F)F)ccc4Cl)nccn3n2)cc1            Y
3  COc1cccc(NC(=O)[C@H](C(C)C)n2c(=O)[nH]c3ccccc3c2=O)c1            N

We now examine a further compound.
Ask: Given CCCN(CCC)CC(O)COc1ccccc1C(=O)Nc1ccccc1 (centres unmarked) , is recorded dAMP strictly lower than 1?
Result: N

###

system: P. falciparum 3D7 trophozoites; assay: Metabolomic fingerprint profiling LC-MS; type: cell-based, Plasmodium falciparum; conditions: S2 Table Metabolomics; metabolite dCMP
endpoint_label: dCMP
No unit in the answer, only the number.

Ask: State dCMP (P. falciparum 3D7 trophozoites) of CCOC(=O)c1cnc2c(C)cc(C)cc2c1Nc1ccc(OC)c(OC)c1 .
Result: -0.6198

Ask: // fetch dCMP for CCOC(=O)C1=C(c2ccccc2)N=c2sc(=Cc3cc(C)n(-c4ccc(F)cc4)c3C)c(=O)n2C1c1cccc(OC)c1OC (stereo not shown) ; system: P. falciparum 3D7 trophozoites
Result: 0.01598

Ask: Fill in dCMP for CCc1ccc(Nc2cc(C)c3ccc(O)cc3n2)cc1 tested with P. falciparum 3D7 trophozoites.
Result: -0.6377

Ask: Lab note: record dCMP of CN(C)c1ccc(C(O)(c2ccc(N(C)C)cc2)c2ccc(N(C)C)cc2)cc1 tested on P. falciparum 3D7 trophozoites.
Result: -0.8045
